Let's look at some sequences and their measured self-splicing fitness (ln).
assay: self-splicing fitness, log relative to wild type (ln ratio); higher = more splicing; Tetrahymena group I intron in knt gene, E. coli kanamycin selection, DiMSum; sequences stand for … in CUCUCU…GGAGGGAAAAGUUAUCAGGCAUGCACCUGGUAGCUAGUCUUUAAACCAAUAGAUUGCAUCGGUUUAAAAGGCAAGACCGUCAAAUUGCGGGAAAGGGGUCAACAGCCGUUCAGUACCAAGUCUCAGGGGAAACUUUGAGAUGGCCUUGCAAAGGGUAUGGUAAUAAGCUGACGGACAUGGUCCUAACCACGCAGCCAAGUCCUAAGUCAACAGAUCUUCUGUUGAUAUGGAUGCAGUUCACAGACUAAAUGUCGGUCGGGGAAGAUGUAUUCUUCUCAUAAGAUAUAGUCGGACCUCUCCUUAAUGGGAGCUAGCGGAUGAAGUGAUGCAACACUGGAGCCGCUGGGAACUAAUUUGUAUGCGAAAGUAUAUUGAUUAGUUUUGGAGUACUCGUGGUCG; conditions: 37 °C;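 also: selection with 25 µg/mL kanamycin versus none on LB agar overnight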

| sequence_string | self-splicing fitness (ln) |
| --- | --- |
| GGCGAGCAAUAUUACGCGUU | -1.94 |
| GUAAAGCAAUAUUACGCGGG | -2.08 |
| CCCGAGCAAUAUUACGUCUC | -2.22 |
| GUAUAGCAAUAUUACGUCGC | -1.65 |
| GGUUAGCAAUAUUACGAGAU | -1.66 |
| ACGUAGCAAUAUUACGUUAG | -2.13 |
| CCCGAGCAAUAUUACGUUGG | -2.09 |
| GGAGAGCAAUAUUACGGUGA | -1.46 |
| CCUAAGCAAUAUUACGCUUU | -2.17 |
| CGAGAGCAAUAUUACGUCAU | -1.78 |
| AAUAAGCAAUAUUACGAGCU | -0.237 |
| UUUAAGCAAUAUUACGAACU | -1.98 |
| GCAGAGCAAUAUUACGCUCA | -0.832 |
| UGCCAGCAAUAUUACGUAAU | -2.16 |
| GUAGAGCAAUAUUACGUCCA | -0.739 |
| AAGCAGCAAUAUUACGGCCA | 0.116 |
| GAGUAGCAAUAUUACGAUCC | -0.509 |
| CGGUAGCAAUAUUACGCAUG | 0.339 |
| AGUGAGCAAUAUUACGUACA | -0.682 |
| AGCCAGCAAUAUUACGACAC | -1.55 |
| ACCAAGCAAUAUUACGCGCG | -0.523 |
| AGACAGCAAUAUUACGGCAC | -1.09 |
| UUUAAGCAAUAUUACGUCGG | -0.762 |
| CAGUAGCAAUAUUACGGCUG | -2.37 |
| GCAGAGCAAUAUUACGAGUU | -1.82 |
| CCGAAGCAAUAUUACGUGGA | -2.47 |
| ACUCAGCAAUAUUACGGGUG | -0.563 |
| ACUCAGCAAUAUUACGGGGG | -1.45 |
| GGGAAGCAAUAUUACGUGCU | -0.273 |
| AAUAAGCAAUAUUACGACAC | -0.462 |
| UGACAGCAAUAUUACGGCCU | 0.131 |
| GUGUAGCAAUAUUACGCUUU | -2.54 |
| CCCUAGCAAUAUUACGCCUA | -2.48 |
| CUACAGCAAUAUUACGUGCA | -2.5 |
| UUGCAGCAAUAUUACGUCAG | 0.42 |
| CAGCAGCAAUAUUACGAGAG | -1.81 |
| ACAGAGCAAUAUUACGCACC | -2.04 |
| CAUUAGCAAUAUUACGUGAC | -1.58 |
| AGACAGCAAUAUUACGUGUA | -1.61 |
| AAAUAGCAAUAUUACGACUG | -0.722 |
| GGGCAGCAAUAUUACGACUG | -0.716 |
| GCGUAGCAAUAUUACGAACA | -0.256 |
| GGUCAGCAAUAUUACGGCGA | 0.838 |
| UAUGAGCAAUAUUACGGCAA | -2.15 |
| UGCGAGCAAUAUUACGGGUU | -2.51 |
| CUUGAGCAAUAUUACGUGGU | -2.74 |
| CGGUAGCAAUAUUACGAGCA | -0.781 |
| UAGAAGCAAUAUUACGAACU | 0.0205 |
| AAGAAGCAAUAUUACGUACA | -0.0821 |
| CGAUAGCAAUAUUACGACUU | -1.47 |
| UAGAAGCAAUAUUACGCACU | -0.846 |
| UCACAGCAAUAUUACGGGUC | -2.79 |
| CGAAAGCAAUAUUACGCAUC | -2.75 |
| CUCCAGCAAUAUUACGUUGU | -3.49 |
| GGACAGCAAUAUUACGUGCG | 0.365 |
| AGCAAGCAAUAUUACGGUUC | -3.42 |
| GUUUAGCAAUAUUACGUACA | -0.508 |
| UGAGAGCAAUAUUACGCAAA | -0.61 |
| UCGUAGCAAUAUUACGCCGU | -0.646 |
| GGUCAGCAAUAUUACGUCAA | 0.0808 |
| AUCAAGCAAUAUUACGGUAA | -0.319 |
